Examples of molecules with documented IC50 follow.
- System: A549 human non-small cell lung cancer (NSCLC) cell line
- METHOD: Neutral red (NR) uptake cytotoxicity assay, A549
- Assay type: cell-based
- EXPERIMENTAL SETUP: Homo sapiens, A549, 72 h, neutral red assay, 72 h incubation

CC1=CC(=O)c2c(O)cccc2C1=O [Compound 4, 5-hydroxy-2-methyl-1,4-naphthalenedione]	1.14 µM
Cc1cc(O)c2c(c1)C(=O)c1cc(O)cc(O)c1C2=O	99.3 µM

Request: Dear colleague, I am looking for the recorded IC50 of the following molecule: `COC(=O)c1c(O)cc2c(c1C)C(=O)c1c(O)cc(O)cc1C2=O`
Response: > 122 µM

Request: Dear colleague, I am looking for the recorded IC50 of the following molecule: `Cc1cc(O)c2c(c1)C(=O)c1cccc(O)c1C2=O`
Response: 52.2 µM

Request: Dear colleague, I am looking for the recorded IC50 of the following molecule: `CCCCCCCCCCCC1=C(O)C(=O)C=C(OC)C1=O`
Response: 50.3 µM
